# Test summary: NCI Yeast Anticancer Drug Screen. Data for the sgs1 mgt1 strain (AID 161);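 note: 0% = growth of cultures given vehicle only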
# Test parameters: S. cerevisiae sgs1 mgt1 strain, at 50.0 µM, hits give high values
Compounds without any hit were thinned out: in the full panel of roughly 79,000, 15% have a hit.
Measured parameter: growth inhibition (%)

compound=ClCCOCCOc1ccccc1Cl readout_value=-8.1
compound="CCOC(=O)CCC(NC(=O)c1ccc(Nc2nc3cc(C(F)(F)F)ccc3nc2C(=O)OCC)cc1)C(=O)OCC (stereo unspecified)" readout_value=-14.3
compound=CC(=O)CC(C)=NCCN=C(C)CC(C)=O.[Cu] readout_value=75.7
compound=CC(=O)OC(C[N+]1(C)CCCCCC1)C[N+]1(C)CCCCCC1 readout_value=-17.8
compound=O=C(O)/C(O)=C(/O)C(=O)O.[NH-]C1CCCCC1[NH-].[Pt+2] readout_value=28.4
compound=O=Nc1ccc(O)cc1O readout_value=1.15
compound=O=C1CSC(/C(=C/c2ccccc2)c2nc3ccccc3[nH]2)=N1 readout_value=0.15
compound=CCCCN1CSC(=S)N(CCCC)C1 readout_value=59.2
compound=COc1ccc(-c2cc(=O)c3cccc(CC(=O)O)c3o2)cc1 readout_value=-0.3
compound=Cn1nc(Br)c(=O)n(C)c1=O readout_value=-14.8
compound="CCCCOC(=O)C1CCCCC1C(=O)OCCCC (stereo unspecified)" readout_value=-0.45
compound=Oc1ccc(OCc2ccccc2)cc1CN1CCOCC1 readout_value=27.3
compound="COC1=CC(=O)c2ccccc2C1(CCC=C(C)C)C1=NC(C)(C)CO1 (stereo unspecified)" readout_value=7.75
compound="O=C1CSC(c2cccs2)N1c1nncs1 (stereo unspecified)" readout_value=19.3
compound=COC(=O)Cc1ccccn1 readout_value=1.4
compound="O=C1CC2(CCc3ccccc32)C(=O)N1CN1CCN(CCO)CC1 (stereo unspecified)" readout_value=3.9
compound="CC1(C)OCC(C(OC(=O)c2ccc([N+](=O)[O-])cc2)C(OC(=O)c2ccc([N+](=O)[O-])cc2)C2COC(C)(C)O2)O1 (stereo unspecified)" readout_value=-5.3
compound="COCC1CCCCC1O (stereo unspecified)" readout_value=3.05
compound="CC1C(=O)OCC2=CCN3CCC(OC(=O)C(C)C1(C)O)C23 (stereo unspecified)" readout_value=-3.45
compound=O=C(O)c1cccn1-c1ccccc1 readout_value=-1.55
compound=Cc1cccc(-n2cnc3c(N(CCO)CCO)ncnc32)c1 readout_value=-10.1
compound="CCNC(=O)C1CC2C=CC1C2 (stereo unspecified)" readout_value=4.2
compound=O=c1n(-c2ccccc2)c(=O)n2c(-c3ccccc3)c(-c3ccccc3)n12 readout_value=-36.5
compound="C=COC(=O)C(Cc1ccccc1)NC(=O)OCc1ccccc1 (stereo unspecified)" readout_value=-23.2
compound=C[N+]1=C(/C=C/Nc2ccc(Cl)cc2)C(C)(C)c2ccccc21 readout_value=-10.4
compound=Cc1ccc(CNC(=O)NC(C)(C)C)cc1 readout_value=-2.65

====

# Test summary: NCI Yeast Anticancer Drug Screen. Data for the mec2-1 strain (AID 157)
# Test parameters: S. cerevisiae mec2-1 strain, at 50.0 µM
About 79,000 compounds went through this panel and 15% of them were active in at least one assay; those are over-represented in the sample as a whole. Activity calls are given as the source filed them. Rule as the data show it: active = growth inhibition above about 70%; inactive = the rest.
Possible outcomes: t for active, f for inactive

compound=Cc1cccc(C)c1NC(=O)C(=O)/C(=C(\N)c1ccccc1)c1ccccc1 label=f
compound=COc1ccc2c(c1)nc1n2C(N)=Nc2ccccc2S1 label=f
compound=NC(=O)NC1=NCCC(=O)N1CCc1c[nH]c2ccccc12 label=t
compound="FC(F)(Br)C(F)(Cl)Br (stereo not drawn)" label=f
compound=O=C(Nc1ccccc1)c1nccc2ccccc12 label=f
compound=O=[N+]([O-])c1ccc(N=Cc2ccccc2O)c(O)c1 label=f
compound=c1ccc2c(c1)ccc1cc3c(ccc4ccccc43)cc12 label=f
compound="NC(CSCc1ccccc1)P(=O)(O)O (stereo not drawn)" label=f
compound="CCCCCC1SCC(=O)N1c1nncs1 (stereo not drawn)" label=f
compound="NC(=O)c1ccccc1NC(=O)C(=O)C(C(=O)c1ccc2ccccc2c1)C1OC(=O)c2ccccc21 (stereo not drawn)" label=f
compound=Nc1ncnc2scnc12 label=f
compound="COc1ccc2c(c1)CCN1CCCc3ccc(OC)cc3C21 (stereo not drawn)" label=f
compound=O=C(CCc1ccccc1)n1cccc1CO label=f
